# assay.summary: Human HepG2 cell viability assay in 384 well format
# Format: toxicity, cell-based
# Design: dose 125 nL, time 70.5 hour; concentration not given beside the values
# cond: HepG2 cells, read-out: Inhibition
observable: cytotoxicity at 70.5 h (%)
One number for each entry, in %.

Use these answered entries as a reference point.
compound: O=C1NCCCc2[nH]c(Cc3ccc(F)cc3)nc21
cytotoxicity at 70.5 h (%): -6

compound: Cc1cnc(CC2COCCN(C(=O)c3cncs3)C2)cn1 (stereo unspecified)
cytotoxicity at 70.5 h (%): -1.74

compound: CS(=O)(=O)N1CCc2[nH]cnc2C12CCN(C1CCOCC1)CC2
cytotoxicity at 70.5 h (%): -6.93

compound: O=C(C1CCOC1)N1CCc2ncnc(-c3cccnc3)c2CC1 (stereo unspecified)
cytotoxicity at 70.5 h (%): 15.9

compound: CN1C(=O)C[C@@H]2[C@@H]1CCN2S(=O)(=O)Cc1ccccc1
cytotoxicity at 70.5 h (%): -3.44

Hey, quick one: what's cytotoxicity at 70.5 h for each of these?
1. O=C(C[C@@H]1COC[C@H]2CN(Cc3cccnc3)C[C@@H]12)N1CCOCC1
2. COC(=O)c1cccc(C(=O)N(CCC#N)CC(C)(C)C)c1
3. O=C(CCc1ccccn1)NC1CCN(c2cccc(Cl)c2)C1 (stereo unspecified)
4. CC(NC(=O)NC1CCN(CC2CCCC2)CC1)c1nccs1 (stereo unspecified)
5. c1ccc(C2CCCCN2Cc2nc(-c3cnccn3)no2)nc1 (stereo unspecified)
6. CC(c1cc(F)ccc1F)N(C)CCS(=O)(=O)CCC(N)=O (stereo unspecified)

Result:
1: 29.4; 2: 1.22; 3: 39.6; 4: -6.39; 5: -1.69; 6: -8.99

---

# assay.summary: Human HepG2 cell viability assay in 384 well format
# Assay type: toxicity, cell-based
# Parameters: dose 125 nL, time 70.5 hour; concentration not given beside the values
# cond: HepG2 cells, read-out: Inhibition
observable: cytotoxicity at 70.5 h (%)
Give bare numbers, in %.

Please review the entries below; each comes with its answer.
compound: CCN(Cc1ccc(O)c(C(=O)O)c1)CC1CCOCC1
cytotoxicity at 70.5 h [%]: -0.0411

compound: CNc1nc(C2CCCCN2C(=O)C(C)(C)OC)nc2c1CN(C)CC2 (centres undefined)
cytotoxicity at 70.5 h [%]: -7.36

compound: CC(C)c1cc(Br)ccc1NC(=O)NCC(O)CO (centres undefined)
cytotoxicity at 70.5 h [%]: -3.27

Give cytotoxicity at 70.5 h for each of the items listed below.
1. Cc1ccc(OCCN(C)Cc2nc3c(cnn3C)c(=O)[nH]2)cc1
2. Cc1noc(C)c1CCC(=O)Nc1ccn(C)n1
3. Cc1nn(C)c(C)c1C1COCCN1C(=O)c1cc(F)ccc1F (centres undefined)
4. CNC(=O)c1cccc(NCC(=O)Nc2cc(C)nn2C)c1C

Result:
[-8.39, 1.75, -16.4, -14]

Please supply cytotoxicity at 70.5 h for each of the following items, keeping them in order.
1. Fc1ccccc1-c1cc(N2[C@@H]3CC[C@H]2CNC3)n2nccc2n1
2. COc1cccc(CCC2CCCCN2)c1 (centres undefined)

Result:
1. -3.67
2. 0.0655

Batch: cytotoxicity at 70.5 h for all items listed.
1. CC(CN1CCCC1=O)NC(=O)c1cc(=O)[nH]c2ccc(Cl)cc12 (centres undefined)
2. CNC(=O)c1ccc(CNC(=O)c2ccc(Cl)cc2F)cc1
3. CS(=O)(=O)NCc1nnc2n1CCN(Cc1cccs1)CC2
4. Cc1noc(CN(Cc2cccc(C#N)c2)Cc2ccco2)n1
5. COCc1cn(C2CCN(CCC(C)c3ccccc3)CC2)nn1 (centres undefined)
6. CC(C)Cc1cc(C(=O)NCC(O)c2ccc(F)cc2)n(C)n1 (centres undefined)
7. Cc1nnc(NC(=O)c2c3c(nn2C2CCS(=O)(=O)C2)CCC3)s1 (centres undefined)
8. O=S(=O)(c1ccccc1)N1CCCC1c1cc[nH]n1 (centres undefined)

Result:
1. -85.6
2. -11.8
3. -4.32
4. 0.0593
5. -12.1
6. -16.2
7. -4.4
8. -8.7

Field: cytotoxicity at 70.5 h. Fill in for each record below.
1. Cc1cc(C)n(CC2CCCN2C(=O)Cc2csc(C)n2)n1 (centres undefined)
2. CCCn1nccc1C(=O)N1CCN(C2CCc3ccccc3C2)CC1 (centres undefined)
3. O=C(CCn1ccc2ccccc21)N1CCC(Nc2cccnn2)CC1
4. O=c1[nH]c2ccccc2c2c1CCO2
5. Cc1nnc2n1CCN(C(C(N)=O)c1ccc(F)cc1)C2 (centres undefined)

Result:
1: -1.11; 2: -7.89; 3: -3.47; 4: -2.59; 5: -16.8

For each entry beneath this line, provide reported cytotoxicity at 70.5 h.
1. CCN1CCNC(=O)C12CCN(C(=O)c1ccccn1)CC2
2. CN(CC1(CO)CCC1)C(=O)C1CCC(=O)N(Cc2ccc(Cl)cc2)C1 (centres undefined)

Result:
[18.3, -1.24]

Numbers sourced from ChEMBL document CHEMBL3507680.
